Values were extracted from patent US9505781B2.

- TEST SYSTEM: menin-MLL interaction (Homo sapiens, UniProt O00255)
- ASSAY SUMMARY: biochemical
The compounds listed here are annotated with their IC50.

Guide cases for IC50, answers given:
FC(F)(F)Cc1cc2c(NC3CCN(Cc4ccc(N5CCCCC5)cc4)CC3)ncnc2s1 [Compound 145] :: 500 to 2000 nM
CS(=O)(=O)c1cc2cc(CN3CCC(Nc4ncnc5sc(CC(F)(F)F)cc45)CC3)ccc2[nH]1 [Compound 236] :: 100 to 500 nM
Cc1c(CN2CCC(Nc3ncnc4sc(CC(F)(F)F)cc34)CC2)ccc2c1cc(C#N)n2Cc1ncc[nH]1 [Compound 332] :: < 100 nM
FC(F)(F)Cc1cc2c(NC3CCN(Cc4ccccc4C(F)(F)F)CC3)ncnc2s1 [Compound 148] :: 500 to 2000 nM
O=C(Cc1ccc(NS(=O)(=O)N2CCCCC2)cc1)N1CCN(c2ncnc3sc(CC(F)(F)F)cc23)CC1 [Compound 52] :: < 100 nM

Task: Checklist item: IC50 tested on menin-MLL interaction (Homo sapiens, UniProt O00255), entry N#Cc1cc2cc(CN3CCC(Nc4c(COCCC5CCCC5)cnc5sc(CC(F)(F)F)cc45)CC3)ccc2[nH]1 [Compound 418] , value?
Output: 500 to 2000 nM

Task: Find IC50 (menin-MLL interaction (Homo sapiens, UniProt O00255)) for the entry N#Cc1cc2cc(CN3CCC(Nc4ncnc5sc(CC(F)(F)F)cc45)CC3)ccc2n1CC(CO)OC1CC1 (stereo not shown) [Compound 222]
Output: < 100 nM

Task: Observed IC50 on menin-MLL interaction (Homo sapiens, UniProt O00255) for FC(F)(F)Cc1cc2c(NCC3CCN(Cc4ccc(OC(F)(F)F)cc4)CC3)ncnc2s1 [Compound 271] , please.
Output: 500 to 2000 nM

Task: What measured IC50 is associated with Cc1ccccc1CN1CCC(Nc2ncnc3sc(CC(F)(F)F)cc23)CC1 [Compound 117] on menin-MLL interaction (Homo sapiens, UniProt O00255)?
Output: 100 to 500 nM

Task: Please provide the recorded IC50 for NS(=O)(=O)c1ccc(CN2CCC(CNc3ncnc4sc(CC(F)(F)F)cc34)CC2)cc1 [Compound 262] , tested on menin-MLL interaction (Homo sapiens, UniProt O00255).
Output: 100 to 500 nM

Task: Value wanted: IC50 (menin-MLL interaction (Homo sapiens, UniProt O00255)) of entry CCOc1cc2c(cc1CN1CCC(Nc3ncnc4sc(CC(F)(F)F)cc34)CC1)cc(C#N)n2CC(N)=O [Compound 216]
Output: < 100 nM

Task: Notebook: pull reported IC50 for menin-MLL interaction (Homo sapiens, UniProt O00255), entry O=C(CCC1CCCCC1)N1CCN(c2ncnc3sc(CC(F)(F)F)cc23)CC1 [Compound 90]
Output: 500 to 2000 nM

Task: For menin-MLL interaction (Homo sapiens, UniProt O00255), provide IC50 of CN(c1ccc(CC(=O)N2CCN(c3ncnc4sc(CC(F)(F)F)cc34)CC2)cc1)S(C)(=O)=O [Compound 46] please.
Output: < 100 nM

* * *

- TEST SYSTEM: menin-MLL interaction (Homo sapiens, UniProt O00255)
- ASSAY SUMMARY: biochemical
Collected IC50 values appear next to each entry.

These solved cases illustrate the format of a correct answer.
N#Cc1cc2c(Cl)c(CN3CCC(Nc4ncnc5sc(CC(F)(F)F)cc45)CC3)ccc2n1Cc1cn[nH]c1 :: < 0.1 µM
N#Cc1cc2cc(CN3CCC(Nc4ncnc5sc(CC(F)(F)F)cc45)CC3)ccc2n1Cc1cc(OCCCC2CC2)n[nH]1 :: 0.1 to 0.5 µM
FC(F)(F)Cc1cc2c(NC3CCN(Cc4ccc[nH]4)CC3)ncnc2s1 :: 0.1 to 0.5 µM

Task: IC50 for N#Cc1cc2cc(CN3CCC(Nc4ncnc5sc(CC(F)(F)F)cc45)CC3)c(O)cc2[nH]1 ?
Output: < 0.1 µM

Task: Give the measured IC50 of CCCCc1cc2c(N3CCN(c4nnc(C(F)(F)F)s4)CC3)ncnc2s1 .
Output: 0.5 to 2 µM

Task: Which IC50 value is on record for Cc1c(CN2CCC(Nc3ncnc4sc(CC(F)(F)F)cc34)CC2)ccc2c1cc(C#N)n2Cc1c[nH]nn1 ?
Output: < 0.1 µM

Task: Could you tell me which IC50 is on file for FC(F)(F)Cc1cc2c(NCC3CCN(Cc4ccc(C(F)(F)F)cc4Cl)CC3)ncnc2s1 ?
Output: 0.5 to 2 µM

Task: Could you share which IC50 value was measured for CCCc1cc2c(N3CCN(c4nnc(C(F)(F)F)s4)CC3)ncnc2s1 ?
Output: 0.5 to 2 µM

Task: IC50 for CN(C)CCS(=O)(=O)Nc1ccc(CC(=O)N2CCN(c3ncnc4sc(CC(F)(F)F)cc34)CC2)cc1 ?
Output: < 0.1 µM

Task: # input molecule: N#Cc1cc2c(Cl)c(CN3CCC(Nc4ncnc5sc(CC(F)(F)F)cc45)CC3)ccc2[nH]1 ; wanted: its IC50
Output: < 0.1 µM

Task: Which IC50 value is on record for COc1cccc(CC(=O)N2CCN(c3ncnc4sc(CC(F)(F)F)cc34)CC2)c1 ?
Output: 0.5 to 2 µM

Task: Name the recorded IC50 for Oc1cccc(CN2CCC(Nc3ncnc4sc(CC(F)(F)F)cc34)CC2)c1 .
Output: 0.1 to 0.5 µM

Task: Recorded IC50 of NS(=O)(=O)Nc1ccc(CC(=O)N2CCN(c3ncnc4sc(CC(F)(F)F)cc34)CC2)cc1 , please.
Output: < 0.1 µM

* * *

- TEST SYSTEM: menin-MLL interaction (Homo sapiens, UniProt O00255)
- Sequence (O00255 1-610): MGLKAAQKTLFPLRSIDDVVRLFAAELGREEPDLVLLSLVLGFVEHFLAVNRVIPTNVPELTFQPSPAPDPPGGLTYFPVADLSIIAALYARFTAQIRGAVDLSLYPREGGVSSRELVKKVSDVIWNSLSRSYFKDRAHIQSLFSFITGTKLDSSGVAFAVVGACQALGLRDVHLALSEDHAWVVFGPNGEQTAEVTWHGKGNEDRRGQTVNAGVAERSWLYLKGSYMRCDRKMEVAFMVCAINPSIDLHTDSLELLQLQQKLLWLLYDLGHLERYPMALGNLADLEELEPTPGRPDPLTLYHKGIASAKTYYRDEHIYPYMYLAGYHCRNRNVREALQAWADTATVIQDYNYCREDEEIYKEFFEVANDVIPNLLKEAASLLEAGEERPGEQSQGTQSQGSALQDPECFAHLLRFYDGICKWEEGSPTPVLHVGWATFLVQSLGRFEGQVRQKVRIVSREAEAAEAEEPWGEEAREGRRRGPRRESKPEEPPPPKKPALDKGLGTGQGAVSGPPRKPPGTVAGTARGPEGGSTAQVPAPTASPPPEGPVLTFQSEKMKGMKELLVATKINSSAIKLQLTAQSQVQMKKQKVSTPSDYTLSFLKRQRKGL
- ASSAY SUMMARY: biochemical
pIC50: −log10 of the molar value.
Measured pIC50 accompanies every entry in the list below.

N#Cc1cc2cc(CN3CCC(Nc4ncnc5sc(CC(F)(F)F)cc45)CC3)ccc2n1CCC(N)=O [Compound 194] :: > 7.00
CC(=O)NCCC(O)(CO)Cn1c(C#N)cc2c(C)c(CN3CCC(Nc4ncnc5sc(CC(F)(F)F)cc45)CC3)ccc21 (centres unmarked) [Compound 371] :: > 7.00
OCc1ccccc1CN1CCC(Nc2ncnc3sc(CC(F)(F)F)cc23)CC1 [Compound 110] :: 6.30 to 7.00
FC(F)Oc1ccc(CN2CCC(Nc3ncnc4sc(CC(F)(F)F)cc34)CC2)cc1 [Compound 141] :: 5.70 to 6.30
CN1CCN(Cc2ccc(CN3CCC(Nc4ncnc5sc(CC(F)(F)F)cc45)CC3)cc2)CC1 [Compound 143] :: 5.70 to 6.30
NCCS(=O)(=O)Nc1ccc(CC(=O)N2CCN(c3ncnc4sc(CC(F)(F)F)cc34)CC2)cc1 [Compound 50] :: > 7.00
FC(F)(F)Cc1cc2c(NCC3CCN(Cc4ccc(N5CCOCC5)cc4Cl)CC3)ncnc2s1 [Compound 259] :: 6.30 to 7.00
N#Cc1cc2cc(CN3CCC(Nc4c(C#N)cnc5sc(CC(F)(F)F)cc45)CC3)ccc2[nH]1 [Compound 279] :: > 7.00

Task: Requested field: pIC50. Item: O=C(Cc1cccc(F)c1)N1CCN(c2ncnc3sc(CC(F)(F)F)cc23)CC1 [Compound 73]
Output: 6.30 to 7.00

Task: Given Oc1ccccc1CN1CCC(Nc2ncnc3sc(CC(F)(F)F)cc23)CC1 [Compound 114] , state its recorded pIC50.
Output: 6.30 to 7.00

Task: Record request: pIC50 value, item Fc1ccc(CN2CCC(Nc3ncnc4sc(CC(F)(F)F)cc34)CC2)c(F)c1 [Compound 122]
Output: 6.30 to 7.00

Task: Could you tell me which pIC50 is on file for FC(F)(F)Cc1cc2c(NCC3CCN(Cc4ccc(Cl)cc4Cl)CC3)ncnc2s1 [Compound 254] ?
Output: 6.30 to 7.00

Task: For the compound N#Cc1cc2cc(CN3CCC(Nc4ncnc5sc(CC(F)(F)F)cc45)C(NCc4cccc(F)c4)C3)ccc2[nH]1 (centres unmarked) [Compound 289] , what pIC50 is on record?
Output: > 7.00

Task: Looking for the measured pIC50 of N#Cc1cc2cc(CN3CCC(Nc4ncnc5sc(CC(F)(F)F)cc45)CC3)ccc2[nH]1 [Compound 175] , can you help?
Output: > 7.00
